TESTED ON: RSV prefusion F (preF, DS-Cav1) (Respiratory syncytial virus)
ASSAY REMARKS: BLI, IgG on sensor, 100 nM antigen
binders and their reported Kd
Dear colleague, please return just the value in nM, with no unit written.

{"columns": ["BINDER", "QUANTITY", "EXPERIMENTAL RESULT"],
 "data": [
  ["ADI-41283 (antibody, V domains shown) VH: QVTLKESGPTLVKPTQTLTLTCTFSGFSLSTFGVAVGWIRQPPGKALEWLALIYWDDDKRYSPSLKSRLTITKDISKNQVVLTMTNMDPVDTATYYCAHRLRSLTARGVFDIWGQGTTVTVSS VL: DIRLTQSPSSLSASVGDRVTITCRASQSINNFLNWYQQRPGKAPTLLIYSASSLQSGVPSRFSGSGSGTDFTLTISSLQPEDFATYFCQQTDSFPWTFGQGTKVEIK", "Kd", 27.4],
  ["ADI-41267 (antibody, V domains shown) VH: QVQLVQSGPGLVKPSGTLSLTCAVSGGSISTTHWWSWVRQPPGKGLEWIGEIYHSGSTNYNPSLKSRVTISVDKSRSQFSLKLTSVTAADTAVYYCARGDPLCSGGICYSGYFDYWGQGTLVTVSS VL: SYVLTQPPSVSVSPGQTATITCSGDKLGDQYACWYQQKSGQSPVLVIYRDNKRPSGIPERFSGSNSGNTATLTISETQAMDEADYYCQAWGSSSVVFGGGTKVTVL", "Kd", 10.7],
  ["ADI-41341 (antibody, V domains shown) VH: QVQLVQSGAEVKKPGSSVKVSCKASGGTFSSYATHWVRQAPGQGLEWMGGIIPIFGRATYAQKFQGRVTISADESTSTAYMELSSLRSEDTAVYYCARGRDDRSGDHIAFLYHYGMDVWGQGSTVTVSS VL: QSVLTQPPSVSAAPGQKVSISCSGSSSNIGINHASWYQHLPGTAPKLLIYDNNKRPSGIPDRFSGSKSGTSATLGISGLQTGDEAAYYCGTWDTGLSAVVFGGGTKLTVL", "Kd", 2.83],
  ["ADI-41254 (antibody, V domains shown) VH: EVQLVESGGGLVQSGGSLRLSCAASGFTFSSYEMNWVRQAPGKGLEWVSYTTNNGRTIYYADSVKGRFTISRDNAKNSLFLQMNGLRAEDTAVYYCARGIQFSRVDYAMDVWGQGTTVTVSS VL: SYELTQPPSVSGTPGQRITISCSGSSSNIASNTVNWYQHLPGTAPKLLIYSDNQRPSGVPDRFSGSKSGTSASLAISGLQSEDEADYYCAIWDDSLNASYVFGTGTKLTVL", "Kd", 0.776]
]}

Note to self: Kd recorded for ADI-41313 (antibody, V domains shown) VH: EVQLVESGAEVKKPGASVKVSCKASGYTFNNYDISWVRQAPGQGLEWMGWISTYNGNTNYAQKFQGRATMTTDTSTTTAYMELRSLRSDDSAIYYCARVYCGGDCHNPFFLYFDLWGRGTLVTVSS VL: SYVLTQPLSVSVALGQTARITCGGNNIGSKSVHWYQQKPGQAPLLVIYRDNNRPSGIPERFSGSTSGNTATLTISRAQAGDEADYSCQVWDNSDWVFGGGTKLTVL was 0.455
